The following compounds are shown together with reported MIC values.
system: Pseudomonas aeruginosa; test: MBEC assay: sessile (biofilm) MIC of antibiotics in absence and presence of LMS-611; format: cell-based; conditions: Pseudomonas aeruginosa, PA strain H183; antibiotic alone

Give MIC (Pseudomonas aeruginosa) of the following compound: CCN1CCN(C(=O)N[C@@H](C(=O)N[C@@H]2C(=O)N3[C@@H]2SC(C)(C)[C@@H]3C(=O)O)c2ccccc2)C(=O)C1=O
4000 µg/mL

New cases:
Please state recorded MIC (tested on Pseudomonas aeruginosa) of NC[C@H]1O[C@H](O[C@H]2[C@H](O)[C@@H](O[C@H]3O[C@H](CO)[C@@H](O)[C@H](N)[C@H]3O)[C@H](N)C[C@@H]2N)[C@H](N)C[C@@H]1O
< 4000 µg/mL

// lookup MIC | system=Pseudomonas aeruginosa | key= C[C@@H](O)[C@H]1C(=O)N2C(C(=O)O)=C(S[C@@H]3CN[C@H](C(=O)N(C)C)C3)[C@H](C)[C@H]12
2000 µg/mL

Under Pseudomonas aeruginosa: MIC value of C[C@H]1[C@H](NC(=O)/C(=N\OC(C)(C)C(=O)O)c2csc(N)n2)C(=O)N1S(=O)(=O)O ?
4000 µg/mL
